Test: Biodistribution in U87MG tumor-bearing mice
Type: in vivo
Conditions: female, CD-1 nude (athymic nude), mouse, pancreas, iv, 5 MBq per mouse, total radioactivity, i.v. ~5 MBq (~1 nmol), 5 h p.i., mean ± SD, n=3, read-out: Biodistribution, pancreas
Metric Name: tissue uptake at 5 h (%ID/g)
Give a bare numeral; the unit %ID/g is implied.

| Molecule | Quantity Unit | tissue uptake at 5 h |
| --- | --- | --- |
| N=C(N)NCCC[C@@H]1NC(=O)[C@H](CCCCNC(=O)CN2CCN(CC(=O)O)CCN(CC(=O)O)CCN(CC(=O)O)CC2)NC(=O)[C@@H](Cc2ccccc2)NC(=O)[C@H](CC(=O)O)NC(=O)CNC1=O [^44Sc-DOTA-RGD, metal not drawn] | %ID/g | 0.39 |

Consider the additional molecule presented here.
Record N=C(N)NCCC[C@@H]1NC(=O)[C@H](CCCCNC(=O)CCC(C(=O)O)N2CCN(CC(=O)O)CCN(CC(=O)O)CC2)NC(=O)[C@@H](Cc2ccc(O)cc2)NC(=O)[C@H](CC(=O)O)NC(=O)CNC1=O (some centres unmarked) [^44Sc-NODAGA-RGD, metal not drawn] , field tissue uptake at 5 h: 0.37

* * *

Experiment: Biodistribution in U87MG tumor-bearing mice
Format: in vivo
Conditions: female, CD-1 nude (athymic nude), mouse, muscle, iv, 5 MBq per mouse, total radioactivity, i.v. ~5 MBq (~1 nmol), 30 min p.i., mean ± SD, n=3, read-out: Biodistribution, Muscle
Metric Name: tissue uptake at 0.5 h (%ID/g)
Give a bare numeral; the unit %ID/g is implied.

| Molecule | Quantity Unit | tissue uptake at 0.5 h |
| --- | --- | --- |
| N=C(N)NCCC[C@@H]1NC(=O)[C@H](CCCCNC(=O)CN2CCN(CC(=O)O)CCN(CC(=O)O)CCN(CC(=O)O)CC2)NC(=O)[C@@H](Cc2ccccc2)NC(=O)[C@H](CC(=O)O)NC(=O)CNC1=O [^44Sc-DOTA-RGD, metal not drawn] | %ID/g | 0.66 |

Consider the additional molecule presented here.
Record N=C(N)NCCC[C@@H]1NC(=O)[C@H](CCCCNC(=O)CCC(C(=O)O)N2CCN(CC(=O)O)CCN(CC(=O)O)CC2)NC(=O)[C@@H](Cc2ccc(O)cc2)NC(=O)[C@H](CC(=O)O)NC(=O)CNC1=O (some centres unmarked) [^44Sc-NODAGA-RGD, metal not drawn] , field tissue uptake at 0.5 h: 0.68

* * *

Assay: Biodistribution in AR42J tumor-bearing mice
Details: female, CD-1 nude (athymic nude), mouse, brain, iv, total radioactivity, Biodistribution, i.v. ~5 MBq (~1 nmol), 5 h p.i., mean ± SD, n=3
Metric Name: tissue uptake at 5 h

Record C[C@@H](O)[C@@H]1NC(=O)[C@H](CCCCN)NC(=O)[C@@H](Cc2c[nH]c3ccccc23)NC(=O)[C@H](Cc2cccc3ccccc23)NC(=O)[C@@H](NC(=O)[C@@H](Cc2ccccc2)NC(=O)CCC(C(=O)O)N2CCN(CC(=O)O)CCN(CC(=O)O)CC2)CSSC[C@@H](C(=O)N[C@H](CO)[C@@H](C)O)NC1=O (stereo partly shown) [^44Sc-NODAGA-NOC, metal not drawn] , field tissue uptake at 5 h: 0.06 %ID/g

* * *

Test: Biodistribution in U87MG tumor-bearing mice
Format: in vivo
Details: female, CD-1 nude (athymic nude), mouse, skin, iv, 5 MBq per mouse, total radioactivity, i.v. ~5 MBq (~1 nmol), 5 h p.i., mean ± SD, n=3, read-out: Biodistribution, Skin
Metric Name: tissue uptake at 5 h (%ID/g)
Give a bare numeral; the unit %ID/g is implied.

| Compound | Metric Name | Reported Measurement |
| --- | --- | --- |
| N=C(N)NCCC[C@@H]1NC(=O)[C@H](CCCCNC(=O)CN2CCN(CC(=O)O)CCN(CC(=O)O)CCN(CC(=O)O)CC2)NC(=O)[C@@H](Cc2ccccc2)NC(=O)[C@H](CC(=O)O)NC(=O)CNC1=O [^44Sc-DOTA-RGD, metal not drawn] | tissue uptake at 5 h | 0.97 |

Consider the additional compound presented here.
Record N=C(N)NCCC[C@@H]1NC(=O)[C@H](CCCCNC(=O)CCC(C(=O)O)N2CCN(CC(=O)O)CCN(CC(=O)O)CC2)NC(=O)[C@@H](Cc2ccc(O)cc2)NC(=O)[C@H](CC(=O)O)NC(=O)CNC1=O (some centres unmarked) [^44Sc-NODAGA-RGD, metal not drawn] , field tissue uptake at 5 h: 1.21

* * *

compounds and their reported tissue uptake at 5 h
Test: Biodistribution in U87MG tumor-bearing mice
Assay type: in vivo
Details: female, CD-1 nude (athymic nude), mouse, U87MG tumor, iv, total radioactivity, i.v. ~5 MBq (~1 nmol), 5 h p.i., mean ± SD, n=3, read-out: Biodistribution, U87MG Tumor
Give a bare numeral; the unit %ID/g is implied.

| Compound | Reported Measurement |
| --- | --- |
| N=C(N)NCCC[C@@H]1NC(=O)[C@H](CCCCNC(=O)CN2CCN(CC(=O)O)CCN(CC(=O)O)CCN(CC(=O)O)CC2)NC(=O)[C@@H](Cc2ccccc2)NC(=O)[C@H](CC(=O)O)NC(=O)CNC1=O [^44Sc-DOTA-RGD, metal not drawn] | 3 |

Consider the additional compound presented here.
Record N=C(N)NCCC[C@@H]1NC(=O)[C@H](CCCCNC(=O)CCC(C(=O)O)N2CCN(CC(=O)O)CCN(CC(=O)O)CC2)NC(=O)[C@@H](Cc2ccc(O)cc2)NC(=O)[C@H](CC(=O)O)NC(=O)CNC1=O (some centres unmarked) [^44Sc-NODAGA-RGD, metal not drawn] , field tissue uptake at 5 h: 3.01

* * *

Experiment: Biodistribution in AR42J tumor-bearing mice
Settings: female, CD-1 nude (athymic nude), mouse, blood, iv, total radioactivity, Biodistribution, i.v. ~5 MBq (~1 nmol), 2 h p.i., mean ± SD, n=3
Metric Name: tissue uptake at 2 h (%ID/g)
Give a bare numeral; the unit %ID/g is implied.

Record C[C@@H](O)[C@@H]1NC(=O)[C@H](CCCCN)NC(=O)[C@@H](Cc2c[nH]c3ccccc23)NC(=O)[C@H](Cc2cccc3ccccc23)NC(=O)[C@@H](NC(=O)[C@@H](Cc2ccccc2)NC(=O)CCC(C(=O)O)N2CCN(CC(=O)O)CCN(CC(=O)O)CC2)CSSC[C@@H](C(=O)N[C@H](CO)[C@@H](C)O)NC1=O (stereo partly shown) [^44Sc-NODAGA-NOC, metal not drawn] , field tissue uptake at 2 h: 0.22

* * *

Assay: in vivo
Details: female, CD-1 nude (athymic nude), mouse, iv, 5 MBq per mouse, total radioactivity, Biodistribution, Pancreas
Metric Name: tissue uptake at 5 h (%ID/g)
Give a bare numeral; the unit %ID/g is implied.

Record C[C@@H](O)[C@@H]1NC(=O)[C@H](CCCCN)NC(=O)[C@@H](Cc2c[nH]c3ccccc23)NC(=O)[C@H](Cc2cccc3ccccc23)NC(=O)[C@@H](NC(=O)[C@@H](Cc2ccccc2)NC(=O)CN2CCN(CC(=O)O)CCN(CC(=O)O)CCN(CC(=O)O)CC2)CSSC[C@@H](C(=O)N[C@H](CO)[C@@H](C)O)NC1=O [^44Sc-DOTA-NOC, metal not drawn] , field tissue uptake at 5 h: 0.57

* * *

Test: Biodistribution in AR42J tumor-bearing mice
Settings: female, CD-1 nude (athymic nude), mouse, AR42J tumor / liver, iv, total radioactivity, Tumor-to-liver ratio, i.v. ~5 MBq (~1 nmol), 2 h p.i., mean ± SD, n=3
Metric Name: tissue to tissue ratio at 2 h
// no unit string in output, number only

Record C[C@@H](O)[C@@H]1NC(=O)[C@H](CCCCN)NC(=O)[C@@H](Cc2c[nH]c3ccccc23)NC(=O)[C@H](Cc2cccc3ccccc23)NC(=O)[C@@H](NC(=O)[C@@H](Cc2ccccc2)NC(=O)CCC(C(=O)O)N2CCN(CC(=O)O)CCN(CC(=O)O)CC2)CSSC[C@@H](C(=O)N[C@H](CO)[C@@H](C)O)NC1=O (stereo partly shown) [^68Ga-NODAGA-NOC, metal not drawn] , field tissue to tissue ratio at 2 h: 5.88

* * *

Assay: in vivo
Details: female, CD-1 nude (athymic nude), mouse, iv, 5 MBq per mouse, total radioactivity, Biodistribution, Stomach
Metric Name: tissue uptake at 0.5 h (%ID/g)
Give a bare numeral; the unit %ID/g is implied.

Record C[C@@H](O)[C@@H]1NC(=O)[C@H](CCCCN)NC(=O)[C@@H](Cc2c[nH]c3ccccc23)NC(=O)[C@H](Cc2cccc3ccccc23)NC(=O)[C@@H](NC(=O)[C@@H](Cc2ccccc2)NC(=O)CN2CCN(CC(=O)O)CCN(CC(=O)O)CCN(CC(=O)O)CC2)CSSC[C@@H](C(=O)N[C@H](CO)[C@@H](C)O)NC1=O [^44Sc-DOTA-NOC, metal not drawn] , field tissue uptake at 0.5 h: 1.38

Data provenance: paper PMC5843811
